// data source = ChEMBL document CHEMBL1201862

Test system: MCF7
Assay: NCI tumour cell line growth inhibition, 48 h
Activity calls are given as the source filed them. Cut-off read from the data, not from the text of the source: active = GI50 up to about 1.1 µM and inactive = higher.
Bench note: report the call from 1 for active, 0 for inactive

Ask: Outcome logged for `CN(C)CCCNC(=O)c1cc(NC(=O)CCCn2c3ccccc3c3ccccc32)cn1C` in this assay:
Result: 0

Ask: Similarly, `Nc1nn2c(nc(N)c3c(N)n[nH]c32)c1/N=N\c1ccc(Br)cc1` ?
Result: 0

Ask: Similarly, `COc1ccc(/N=c2\ssc(C(=S)Nc3ccc(OC)cc3)c2S)cc1` ?
Result: 0

Ask: Similarly, `O=P(O)(O)CCP(=O)(O)O` ?
Result: 0

* * *

System: Malme-3M
Assay: NCI tumour cell line growth inhibition, 48 h
Active and inactive are the calls of the source. No stated cut-off is given here; in the data, active = GI50 up to about 1.1 µM and inactive = higher.
GI50 overview

INSERT INTO assay_data (molecule, observed_result) VALUES
  ('COc1cc(N(CCC#N)CCC#N)ccc1C(/N=N/c1cccc([N+](=O)[O-])c1)=N\NC(=O)c1ccc(C)cc1', '> 100 µM (inactive)'),
  ('Br[C@@H]1[C@H]2c3nc4ccccc4nc3[C@@H]1C[C@H]2Br', '> 100 µM (inactive)'),
  ('CS(=O)(=O)c1cc(=O)c2ccccc2s1', '1.8 µM (inactive)');

Ask: Param item = `N#Cc1ccc(/C=N\N2C(=O)c3ccccc3C2=O)cc1` ; retrieve measured GI50.
Result: > 100 µM (inactive)

Ask: Similarly, `CC(=O)Nc1ccc(/C=c2\sc3nnc(CCC(=O)Nc4ccccc4Cl)n3c2=O)cc1` ?
Result: 38.8 µM (inactive)

Ask: Similarly, `O=S(=O)(/C=C/C=C/S(=O)(=O)c1ccccc1)c1ccccc1` ?
Result: 1.17 µM (inactive)

Ask: Similarly, `CCCn1c(SCCSc2c3ccccc3c(-c3nc(F)nc(F)n3)n2CCC)c2ccccc2c1-c1nc(F)nc(F)n1` ?
Result: > 100 µM (inactive)

Ask: Similarly, `CCCNC(=O)Cn1c2c(c3ccccc31)CCCC2` ?
Result: > 100 µM (inactive)
